Assay: Pharmacokinetics of acetate of Compound 22 in SD rats with single and repeated administration
Type: in vivo
Details: female, Sprague-Dawley, rat, plasma, po, 21 mg/kg, Group 2 PO 21 mg/kg single, Female, read-out: AUC0-t
Measured Quantity: AUC(0-t) (ng·h/mL)
Give bare numbers, in ng·h/mL.

Reported AUC(0-t) of CC(=O)O.Nc1nc(NCCc2ccc(NC3COC3)cc2)nc2nc(-c3ccco3)nn12 [Acetate of Compound 22] : 43500

---

Experiment: Pharmacokinetics of acetate of Compound 22 in SD rats with single and repeated administration
Type: in vivo
Conditions: male, Sprague-Dawley, rat, plasma, po, 63 mg/kg, Group 5 PO 63 mg/kg repeated, Day 7, Male, read-out: Tmax (median)
Measured Quantity: Tmax (h)
Give bare numbers, in h.

Reported Tmax of CC(=O)O.Nc1nc(NCCc2ccc(NC3COC3)cc2)nc2nc(-c3ccco3)nn12 [Acetate of Compound 22] : 1

---

Experiment: Pharmacokinetics of acetate of Compound 22 in SD rats with single and repeated administration
Type: in vivo
Settings: female, Sprague-Dawley, rat, plasma, po, 189 mg/kg, Group 4 PO 189 mg/kg single, Female, read-out: AUC0-t
Measured Quantity: AUC(0-t) (µg·h/mL)
Numbers only, in µg·h/mL.

Reported AUC(0-t) of CC(=O)O.Nc1nc(NCCc2ccc(NC3COC3)cc2)nc2nc(-c3ccco3)nn12 [Acetate of Compound 22] : 248

---

Test: Pharmacokinetics of acetate of Compound 22 in SD rats with single and repeated administration
Format: in vivo
Settings: female, Sprague-Dawley, rat, plasma, iv, 2 mg/kg, Group 1 IV 2.0 mg/kg single, Female, read-out: T1/2 (converted)
Protocol: The formulation for Group 5 was prepared before administration on Day 1, and then, divided into daily doses and stored at 5±3° C. […] Pharmacokinetic data was calculated using the linear logarithmic trapezoidal method, with a weight of 1/(Y*Y). Samples with the sample concentration below the lower limit of quantification were excluded from the calculation of pharmacokinetic parameters. […]
Measured Quantity: half-life (h)
Give bare numbers, in h.

Reported half-life of CC(=O)O.Nc1nc(NCCc2ccc(NC3COC3)cc2)nc2nc(-c3ccco3)nn12 [Acetate of Compound 22] : 4.7

---

Test: Solubility in biological vehicles (SGF, FaSSIF, FeSSIF) at 37° C., HPLC
Assay type: physicochemical
Conditions: simulated gastric fluid (SGF), 37 °C, simulated gastric fluid, thermodynamic from solid, SGF, 0.5 h
Measured Quantity: solubility at 0.5 h (µg/mL)
Answers are plain numbers, in µg/mL.

Reported solubility at 0.5 h of Nc1nc(NCCc2ccc(NC3COC3)cc2)nc2nc(-c3ccco3)nn12 : 622

---

Please go through the items and note down their half-life.
Experiment: Pharmacokinetics of Compounds 27, 40, 22 and 41 in ICR mice in different modes of administration
Type: in vivo
Settings: ICR, mouse, in vivo, po, 30 mg/kg, PO (after 7 consecutive days of administration), 30 mg/kg
Numbers only, in h.

A selection of reference data follows.
# Compound, Measured Quantity, Endpoint Value
data = [
    ("Cn1nnc(-c2ccc(CCNc3nc(N)n4nc(-c5ccco5)nc4n3)cc2)n1 [Compound 40]", "half-life", 2.79),
    ("COCCNc1ccc(CCNc2nc(N)n3nc(-c4ccco4)nc3n2)cc1 [Compound 27]", "half-life", 1.86),
]

Reported half-life of Nc1nc(NCCc2ccc(NC3COC3)cc2)nc2nc(-c3ccco3)nn12 [Compound 22] : 3.04

---

Please go through the items and note down their half-life.
Test: Pharmacokinetics of Compounds 27, 16, 14 and 22 in SD rats
Type: in vivo
Conditions: Sprague-Dawley, rat, in vivo, PO, dose 10 (mg/kg)
Could you give the number and then its unit, please?

Each of the following entries comes with a recorded value; kindly state half-life for each.
1. Nc1nc(NCCc2ccc(OCCN3CCC(F)(F)C3)cc2)nc2nc(-c3ccco3)nn12
2. Nc1nc(NCCc2ccc(OCCN3CC[C@H](F)C3)cc2)nc2nc(-c3ccco3)nn12

[out]
3.05 h
4.78 h

---

Test: Pharmacokinetics of acetate of Compound 22 in SD rats with single and repeated administration
Type: in vivo
Details: female, Sprague-Dawley, rat, plasma, po, 21 mg/kg, Group 2 PO 21 mg/kg single, Female, read-out: Cmax
Measured Quantity: Cmax (ng/mL)
One number for each entry, in ng/mL.

Reported Cmax of CC(=O)O.Nc1nc(NCCc2ccc(NC3COC3)cc2)nc2nc(-c3ccco3)nn12 [Acetate of Compound 22] : 20100

---

Test: Pharmacokinetics of test compounds in SD rats (15.2; IV and PO, mixed administration)
Type: in vivo
Conditions: male, Sprague-Dawley, rat, plasma, PO, 3 mg/kg
Measured Quantity: AUC(0-t) (ng·h/mL)
One number for each entry, in ng·h/mL.

Reported AUC(0-t) of COCCn1nnc(-c2ccc(CCNc3nc(N)n4nc(-c5ccco5)nc4n3)cc2)n1 : 1500

---

Test: Pharmacokinetics of acetate of Compound 22 in SD rats with single and repeated administration
Assay type: in vivo
Details: Sprague-Dawley (SD), rat, plasma, po, 63 mg/kg, oral 63 mg/kg, read-out: maximum plasma concentration (Cmax)
Measured Quantity: Cmax

Reported Cmax of CC(=O)O.Nc1nc(NCCc2ccc(NC3COC3)cc2)nc2nc(-c3ccco3)nn12 [Acetate of Compound 22] : 27400 ng/mL

---

Please go through the items and note down their pIC50.
Target: human ADORA1 (Homo sapiens)
Sequence (P30542 whole entry): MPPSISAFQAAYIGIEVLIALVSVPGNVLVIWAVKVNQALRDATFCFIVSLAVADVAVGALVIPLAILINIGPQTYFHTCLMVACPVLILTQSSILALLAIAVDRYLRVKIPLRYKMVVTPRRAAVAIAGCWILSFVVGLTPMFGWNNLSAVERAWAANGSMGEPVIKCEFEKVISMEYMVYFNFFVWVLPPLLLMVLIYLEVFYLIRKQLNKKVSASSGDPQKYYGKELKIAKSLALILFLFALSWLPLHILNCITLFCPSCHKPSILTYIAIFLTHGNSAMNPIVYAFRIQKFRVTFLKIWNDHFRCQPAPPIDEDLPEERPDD
Assay: Calcium flow test (FLIPR), ADORA1 stably transfected HEK293
Conditions: Table 9
Give bare numbers, as −log10 of the molar value.

# Compound, pIC50
data = [
    ("Cn1nnc(-c2ccc(CCNc3nc(N)n4nc(-c5ccco5)nc4n3)cc2)n1 [Compound 40]", 6.64),
]

Observed pIC50 on human ADORA1 (Homo sapiens), entry Nc1nc(NCCc2ccc(NC3COC3)cc2)nc2nc(-c3ccco3)nn12 [Compound 22] , equals 6.66

---

Experiment: Pharmacokinetics of Compounds 27, 16, 14 and 22 in SD rats
Format: in vivo
Conditions: Sprague-Dawley, rat, in vivo, PO, dose 3 (mg/kg)
Measured Quantity: Cmax (ng/mL)
Answers are plain numbers, in ng/mL.

Reported Cmax of Nc1nc(NCCc2ccc(NC3COC3)cc2)nc2nc(-c3ccco3)nn12 : 580

---

Please go through the items and note down their Cl—F—pred.
Experiment: Pharmacokinetics of Compounds 27, 40, 22 and 41 in ICR mice in different modes of administration
Format: in vivo
Conditions: PO, 5 mg/kg
Numbers only, in mL/min/kg.

A selection of reference data follows.
# Smiles Structure, Measured Quantity, Uom, Endpoint Value
data = [
    ("Nc1nc(NCCc2ccc(NC3COC3)cc2)nc2nc(-c3ccco3)nn12", "Cl—F—pred", "mL/min/kg", 21),
    ("CCn1nnc(-c2ccc(CCNc3nc(N)n4nc(-c5ccco5)nc4n3)cc2)n1", "Cl—F—pred", "mL/min/kg", 48.7),
    ("COCCNc1ccc(CCNc2nc(N)n3nc(-c4ccco4)nc3n2)cc1", "Cl—F—pred", "mL/min/kg", 27.5),
]

Could you now look at the following molecule, please?
Reported Cl—F—pred of Cn1nnc(-c2ccc(CCNc3nc(N)n4nc(-c5ccco5)nc4n3)cc2)n1 : 15

---

Assay: Pharmacokinetic evaluation of Compound 22 in female BALB/c mice in different vehicles
Type: in vivo
Settings: mouse, plasma, po, 100 mg/kg, 100 mg/kg p.o. single, Group 2, vehicle 40% (2-hydroxypropyl)-β-cyclodextrin, read-out: T½ (converted)
Experimental: BALB/c mice, female, 7-9 weeks old (the age of mice at the start of the experiment), weight: 19.2-22.1 g, […] (34 mice plus another 10 surplus mice). They were purchased from Shanghai Lingchang Biotechnology Co., Ltd. (LC), with animal certificate number: 2013001835211. Rearing environment: SPF level. After single administration, plasma was collected from each group at 0.25 h, 0.5 h, 1 h, 2 h, 4 h, 6 h, 8 h and 24 h, with 3 mice at each time point, and the experiment was terminated after 24h. […]
Measured Quantity: half-life (h)
Numbers only, in h.

Reported half-life of Nc1nc(NCCc2ccc(NC3COC3)cc2)nc2nc(-c3ccco3)nn12 : 2.66

---

Test: Pharmacokinetics of acetate of Compound 22 in SD rats with single and repeated administration
Assay type: in vivo
Settings: female, Sprague-Dawley, rat, plasma, po, 63 mg/kg, Group 5 PO 63 mg/kg repeated, Day 7, Female, read-out: AUC0-t
Measured Quantity: AUC(0-t)

Reported AUC(0-t) of CC(=O)O.Nc1nc(NCCc2ccc(NC3COC3)cc2)nc2nc(-c3ccco3)nn12 [Acetate of Compound 22] : 157 µg·h/mL

---

Molecular target: Human adenosine ADORA2A receptor membrane protein (Homo sapiens)
Construct: purchased PerkinElmer RBHA2AM400UA
Sequence (P29274 whole entry): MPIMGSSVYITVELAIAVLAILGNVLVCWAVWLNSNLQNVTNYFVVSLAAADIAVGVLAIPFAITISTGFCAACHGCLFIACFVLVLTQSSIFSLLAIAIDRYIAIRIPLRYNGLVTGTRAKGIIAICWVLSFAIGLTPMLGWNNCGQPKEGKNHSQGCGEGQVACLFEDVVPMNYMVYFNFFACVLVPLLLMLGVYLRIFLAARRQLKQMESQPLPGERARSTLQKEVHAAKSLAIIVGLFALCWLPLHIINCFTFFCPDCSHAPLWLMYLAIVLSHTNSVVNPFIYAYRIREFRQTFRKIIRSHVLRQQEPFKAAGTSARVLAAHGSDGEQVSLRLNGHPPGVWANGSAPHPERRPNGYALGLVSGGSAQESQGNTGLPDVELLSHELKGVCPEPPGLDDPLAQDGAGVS
Experiment: Radioisotope ligand competitive binding, ADORA2A ([3H] CGS-21680)
Details: ADORA2A (IC50, nM, n = 3), binding test, Table 10 (IC50)
Please go through the items and note down their IC50.
Give bare numbers, in nM.

# Smiles Structure, Target Desc, IC50 (nM)
data = [
    ("Nc1nc(NCCc2ccc(NC3COC3)cc2)nc2nc(-c3ccco3)nn12", "Human adenosine ADORA2A receptor membrane protein (Homo sapiens)", 0.96),
]

Reported IC50 of Cn1nnc(-c2ccc(CCNc3nc(N)n4nc(-c5ccco5)nc4n3)cc2)n1 : 1.85
